Assay: in vitro
Settings: mouse, serum, Murine serum stability (% remaining after 1 hr), Replicate 1/2; MBX
result type: remaining at 1 h (%)

INSERT INTO results (molecule, observed_value) VALUES
  ('O=C(Nc1nnc(-c2ccc(F)cc2)o1)N1CCc2ccccc2C1', 92.6);

====

Experiment: Aqueous solubility (nephelometric)
Assay type: physicochemical
Conditions: single replicates
Form field: Solubility (one value per entry).
result type: Solubility (µM)

INSERT INTO assay_data (molecule, qualifier_sign, observed_value) VALUES
  ('O=C(Nc1nnc(-c2ccc(F)cc2)o1)N1CCCCCC1', '=', 25),
  ('O=C(Nc1nnc(-c2ccc(F)cc2)o1)c1ccccc1', '=', 50),
  ('O=C(Nc1nnc(-c2ccc(F)cc2)o1)N1CCCCC1', '=', 50),
  ('Fc1ccc(-c2nnc(NCc3ccc(Cl)cc3)o2)cc1', '=', 25),
  ('O=C(Nc1nnc(-c2ccccc2)o1)c1ccc(Cl)cc1', '=', 12.5),
  ('Cc1ccc(S(=O)(=O)Nc2nnc(-c3ccc(F)cc3)o2)cc1', '=', 100),
  ('O=C(Nc1nnc(-c2ccc(F)cc2)o1)N1CCCC1', '>', 200),
  ('O=C(Nc1nnc(-c2ccc(F)cc2)o1)C1CCCCC1', '=', 25),
  ('O=C(Nc1nnc(C2CCCCC2)o1)c1ccc(Cl)cc1', '=', 50);

====

Assay: Pharmacokinetic analyses in mice (PO suspension, IV, SC)
Type: in vivo, mouse
Conditions: mouse, in vivo, iv, 10 mg/kg, IV (10 mg/kg), 0.083 hrs, individual animals; read-out: MBX 4132 Concentrations in Mouse Plasma
result type: concentration at 0.083 h (µg/mL)

INSERT INTO results (molecule, observed_value) VALUES
  ('O=C(Nc1nnc(-c2ccc(F)cc2)o1)N1CCc2ccccc2C1', 74.6);

====

Target: Nav1.5 (Homo sapiens, UniProt Q14524)
Construct: Eurofins Discovery Services (contract assay) CYL8004QP2DR; CYL7004QP1DR; CYL7004QP2DR
Sequence (Q14524 whole entry): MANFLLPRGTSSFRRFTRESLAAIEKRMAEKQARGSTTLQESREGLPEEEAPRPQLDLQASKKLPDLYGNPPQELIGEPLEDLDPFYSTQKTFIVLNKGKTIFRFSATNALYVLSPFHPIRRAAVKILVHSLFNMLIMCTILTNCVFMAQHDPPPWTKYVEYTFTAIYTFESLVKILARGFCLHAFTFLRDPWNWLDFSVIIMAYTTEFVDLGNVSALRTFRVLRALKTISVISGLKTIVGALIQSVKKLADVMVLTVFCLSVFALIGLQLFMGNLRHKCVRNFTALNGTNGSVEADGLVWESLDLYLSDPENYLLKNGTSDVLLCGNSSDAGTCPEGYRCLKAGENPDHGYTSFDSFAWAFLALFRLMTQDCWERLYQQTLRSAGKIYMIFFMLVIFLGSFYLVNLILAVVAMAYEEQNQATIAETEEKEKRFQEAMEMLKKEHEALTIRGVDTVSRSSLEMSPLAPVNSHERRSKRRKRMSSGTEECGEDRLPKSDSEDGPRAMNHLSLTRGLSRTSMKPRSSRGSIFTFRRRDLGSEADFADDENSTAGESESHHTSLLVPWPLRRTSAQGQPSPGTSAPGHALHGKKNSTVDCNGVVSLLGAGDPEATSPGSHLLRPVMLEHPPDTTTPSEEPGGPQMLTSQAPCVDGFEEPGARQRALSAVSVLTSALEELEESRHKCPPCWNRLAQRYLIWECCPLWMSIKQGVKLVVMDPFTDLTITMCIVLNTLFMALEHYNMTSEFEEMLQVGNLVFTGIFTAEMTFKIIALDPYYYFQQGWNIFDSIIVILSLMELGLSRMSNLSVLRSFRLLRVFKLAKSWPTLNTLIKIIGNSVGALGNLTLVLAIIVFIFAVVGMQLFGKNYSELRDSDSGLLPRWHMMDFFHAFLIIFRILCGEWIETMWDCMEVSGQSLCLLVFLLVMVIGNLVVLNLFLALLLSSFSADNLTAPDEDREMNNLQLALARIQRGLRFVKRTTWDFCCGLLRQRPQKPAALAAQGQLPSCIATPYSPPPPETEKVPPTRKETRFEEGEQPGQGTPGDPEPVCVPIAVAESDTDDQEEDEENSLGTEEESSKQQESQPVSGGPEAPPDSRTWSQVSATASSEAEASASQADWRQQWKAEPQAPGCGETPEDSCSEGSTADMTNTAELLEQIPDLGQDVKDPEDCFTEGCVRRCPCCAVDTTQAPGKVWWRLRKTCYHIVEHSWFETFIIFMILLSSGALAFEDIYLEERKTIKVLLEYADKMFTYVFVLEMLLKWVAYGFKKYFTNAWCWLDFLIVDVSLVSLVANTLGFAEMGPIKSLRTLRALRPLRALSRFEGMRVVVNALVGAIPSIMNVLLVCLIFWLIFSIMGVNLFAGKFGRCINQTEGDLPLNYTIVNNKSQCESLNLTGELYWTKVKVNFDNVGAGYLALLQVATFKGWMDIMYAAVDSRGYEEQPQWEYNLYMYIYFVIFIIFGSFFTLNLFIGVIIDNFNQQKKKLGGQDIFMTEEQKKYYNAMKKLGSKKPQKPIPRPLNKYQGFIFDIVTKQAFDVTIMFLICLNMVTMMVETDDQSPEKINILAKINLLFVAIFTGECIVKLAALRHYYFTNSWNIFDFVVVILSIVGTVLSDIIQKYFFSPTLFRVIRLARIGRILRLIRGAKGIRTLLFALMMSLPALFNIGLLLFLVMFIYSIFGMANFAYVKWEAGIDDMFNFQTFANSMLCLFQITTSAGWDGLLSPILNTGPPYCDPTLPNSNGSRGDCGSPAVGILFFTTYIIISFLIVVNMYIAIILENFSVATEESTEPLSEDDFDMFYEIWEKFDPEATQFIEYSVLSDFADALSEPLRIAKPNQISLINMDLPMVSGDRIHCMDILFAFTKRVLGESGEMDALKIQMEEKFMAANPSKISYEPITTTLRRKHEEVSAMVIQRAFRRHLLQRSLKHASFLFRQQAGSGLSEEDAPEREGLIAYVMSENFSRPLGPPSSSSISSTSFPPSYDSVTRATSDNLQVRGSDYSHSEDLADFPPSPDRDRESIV
Test: Cardiac Ion Channel Panel
result type: IC50

INSERT INTO measurements (molecule, target_under_test, observed_value) VALUES
  ('O=C(Nc1nnc(-c2ccc(F)cc2)o1)N1CCc2ccccc2C1', 'Nav1.5 (Homo sapiens, UniProt Q14524)', '> 30 µM');

====

Test: Mitochondrial toxicity assay, glucose vs galactose
Assay type: cell-based
Settings: human, HepG2 cells, HepG2; Glucose; Conc. (μM) 3.00E-06; replicates; read-out: % viability
result type: viability at 24 h, 3 µM

INSERT INTO measurements (molecule, observed_value) VALUES
  ('O=C(Nc1nnc(-c2ccc(F)cc2)o1)N1CCc2ccccc2C1 [MBX-4132]', '116%');

====

Assay: Pharmacokinetic analyses in mice (PO suspension, IV, SC)
Type: in vivo, mouse
Settings: female, CD-1, mouse, in vivo, po, 10 mg/kg, PO (10 mg/kg susp.), 24 hrs, individual animals; read-out: MBX 4132 Concentrations in Mouse Plasma
result type: concentration at 24 h

INSERT INTO measurements (molecule, observed_value) VALUES
  ('O=C(Nc1nnc(-c2ccc(F)cc2)o1)N1CCc2ccccc2C1', '< 62.5 ng/mL');

====

Assay: Multiplexed cytotoxicity assay (nuclei, ROS, TMRE)
Type: cell-based, human
Details: human, human primary hepatocytes, 1.00E+00 μM; read-out: Mean ROS (fold induction)
result type: fold induction at 24 h, 1 μM

INSERT INTO results (molecule, result_type, observed_value) VALUES
  ('O=C(Nc1nnc(-c2ccc(F)cc2)o1)N1CCc2ccccc2C1', 'fold induction at 24 h, 1 μM', 1.2);

====

System: mitochondrial membrane potential (MMP, TMRE signal)
Assay: Multiplexed cytotoxicity assay (nuclei, ROS, TMRE)
Assay type: cell-based, human
Conditions: human, primary hepatocytes, 3.17E+00 μM; 24 h; read-out: MMP inhibition (fold induction)
result type: fold induction at 24 h, 3.17 μM

INSERT INTO measurements (compound, observed_value) VALUES
  ('O=C(Nc1nnc(-c2ccc(F)cc2)o1)N1CCc2ccccc2C1 [MBX-4132]', 1);

====

Assay: Caco-2 permeability
Type: in vitro ADME, human
Settings: human, Caco-2, B→A; Average Value; Eurofins; read-out: Caco-2 B→A
result type: Papp B→A (×10⁻⁶ cm/s)

INSERT INTO measurements (molecule, unit_label, observed_value) VALUES
  ('O=C(Nc1nnc(-c2ccc(F)cc2)o1)N1CCc2ccccc2C1', '×10⁻⁶ cm/s', 7.3);

====

Test: Serum protein binding, dog
Format: in vitro ADME
Conditions: Average Value, Eurofins, read-out: Serum binding (% bound) Dog (converted)
result type: fraction unbound

INSERT INTO measurements (molecule, observed_value) VALUES
  ('O=C(Nc1nnc(-c2ccc(F)cc2)o1)N1CCc2ccccc2C1', 0.048);

====

Test: Caco-2 permeability
Assay type: in vitro ADME, human
Conditions: human, Caco-2, B→A; Replicate 1/2; Eurofins; read-out: Caco-2 B→A
result type: Papp B→A

INSERT INTO measurements (molecule, observed_value) VALUES
  ('O=C(Nc1nnc(-c2ccc(F)cc2)o1)N1CCc2ccccc2C1 [MBX-4132]', '6.33 ×10⁻⁶ cm/s');

====

Experiment: Serum protein binding, dog
Format: in vitro ADME
Details: Reported value, Eurofins, read-out: Serum binding (% bound) Dog (converted)
result type: fraction unbound

INSERT INTO measurements (molecule, observed_value) VALUES
  ('O=C(Nc1nnc(-c2ccc(F)cc2)o1)N1CCc2ccccc2C1', 0.048);

====

Assay: Mitochondrial toxicity assay, glucose vs galactose
Format: cell-based
Settings: human, HepG2 cells, HepG2; Galactcose; Conc. (μM) 3.00E-06; read-out: Mean % viability
result type: viability at 24 h, 3 µM (%)

INSERT INTO measurements (molecule, observed_value) VALUES
  ('O=C(Nc1nnc(-c2ccc(F)cc2)o1)N1CCc2ccccc2C1', 94.1);

====

Assay: Aqueous solubility (nephelometric)
Type: physicochemical
result type: Average solubility

INSERT INTO measurements (compound, result_type, observed_value) VALUES
  ('O=C(Nc1nnc(-c2ccc(F)cc2)o1)c1ccccc1 [MBX-C4227]', 'Average solubility', '50 µM'),
  ('O=C(Nc1nnc(-c2ccc(F)cc2)o1)C1CCCCC1 [MBX-3709]', 'Average solubility', '25 µM'),
  ('O=C(Nc1nnc(C2CCCCC2)o1)c1ccc(Cl)cc1 [MBX-4370]', 'Average solubility', '50 µM'),
  ('O=C(Nc1nnc(-c2ccc(F)cc2)o1)N1CCCCC1 [MBX-4699]', 'Average solubility', '50 µM'),
  ('Cc1ccc(S(=O)(=O)Nc2nnc(-c3ccc(F)cc3)o2)cc1 [MBX-4063]', 'Average solubility', '100 µM'),
  ('O=C(Nc1nnc(-c2ccccc2)o1)c1ccc(Cl)cc1 [MBX-3910]', 'Average solubility', '12.5 µM'),
  ('CN(C(=O)c1ccc(Cl)cc1)c1nnc(-c2ccc(F)cc2)o1 [MBX-4076]', 'Average solubility', '<3.1 µM'),
  ('Fc1ccc(-c2nnc(NCc3ccc(Cl)cc3)o2)cc1 [MBX-3776]', 'Average solubility', '25 µM'),
  ('O=C(Nc1nnc(-c2ccc(F)cc2)o1)N1CCCC1 [MBX-4346]', 'Average solubility', '>200 µM'),
  ('O=C(Nc1nnc(-c2ccc(F)cc2)o1)N1CCCCCC1 [MBX-4700]', 'Average solubility', '25 µM');

====

Experiment: Pharmacokinetic analyses in mice (PO suspension, IV, SC)
Assay type: in vivo, mouse
Details: mouse, in vivo, iv, 10 mg/kg, IV (10 mg/kg), 0.5 hrs, mean of 3 animals; read-out: MBX 4132 Concentrations in Mouse Plasma, Mean
result type: concentration at 0.5 h (ng/mL)

INSERT INTO measurements (molecule, result_type, observed_value) VALUES
  ('O=C(Nc1nnc(-c2ccc(F)cc2)o1)N1CCc2ccccc2C1', 'concentration at 0.5 h', 32900);

====

Assay: Pharmacokinetic analyses in mice (PO suspension, IV, SC)
Assay type: in vivo, mouse
Conditions: female, CD-1, mouse, in vivo, po, 10 mg/kg, PO (10 mg/kg), 0.083 hrs, mean of 3 animals; read-out: MBX 4132 Concentrations in Mouse Plasma, Mean
result type: concentration at 0.083 h (ng/mL)

INSERT INTO measurements (molecule, observed_value) VALUES
  ('O=C(Nc1nnc(-c2ccc(F)cc2)o1)N1CCc2ccccc2C1', 1260);

====

Test: Pharmacokinetic analyses in mice (PO suspension, IV, SC)
Type: in vivo, mouse
Conditions: female, CD-1, mouse, in vivo, po, 10 mg/kg, PO (10 mg/kg susp.), 0.25 hrs, individual animals; read-out: MBX 4132 Concentrations in Mouse Plasma
result type: concentration at 0.25 h (ng/mL)

INSERT INTO measurements (molecule, unit_label, observed_value) VALUES
  ('O=C(Nc1nnc(-c2ccc(F)cc2)o1)N1CCc2ccccc2C1', 'ng/mL', 14300);
